METHOD DESCRIPTION: Cytotoxicity against rat H9c2 cells assessed as reduction in cell viability
Type: cell-based
READOUT LABEL: CC50

Recorded CC50 of CCCn1c(NC(=O)Cc2ccc(C(F)(F)F)cc2)nc2ccccc21 , please.
> 50 µM

Recorded CC50 of CCCn1c(NC(=O)Cc2ccc(Cl)cc2)nc2ccc(Cl)cc21 , please.
6.3 µM

Recorded CC50 of CCCn1c(NC(=O)Cc2ccc(OC(C)=O)cc2)nc2ccccc21 , please.
> 50 µM

Recorded CC50 of CCCn1c(NC(=O)Cc2ccc(F)cc2)nc2ccccc21 , please.
> 50 µM

Recorded CC50 of CCCn1c(NC(=O)Cc2cccc(Br)c2)nc2ccccc21 , please.
> 50 µM

Recorded CC50 of CCCn1c(NC(=O)Nc2ccc(Cl)cc2)nc2ccccc21 , please.
> 50 µM

Recorded CC50 of CCCn1c(NC(=O)Cc2ccc(Cl)cc2)nc2c(OC)cccc21 , please.
> 50 µM

Recorded CC50 of CCCn1c(NC(=O)Cc2ccc(Cl)cc2)nc2ccccc21 , please.
> 50 µM

Recorded CC50 of CCCn1c(NC(=O)Cc2ccccc2OC)nc2ccccc21 , please.
13 µM

Recorded CC50 of CCCn1c(NC(=O)Cc2cccc(C)c2)nc2ccccc21 , please.
> 50 µM

Recorded CC50 of CCCn1c(NC(=O)Cc2ccc(O)cc2)nc2ccccc21 , please.
> 50 µM

Recorded CC50 of CCCn1c(NC(=O)Cc2cccc3ccccc23)nc2ccccc21 , please.
> 50 µM
